# assay.name: Intravesical suramin in dogs: bladder contents, bladder wall and plasma concentrations
# Type: in vivo
# condition: beagle, dog, bladder wall tissue, other: intravesical, 6 mg/ml, remainder of the bladder wall; read-out: bladder wall tissue concentration
measured.quantity: concentration at 120 min

- smiles.record: "Cc1ccc(C(=O)Nc2ccc(S(=O)(=O)O)c3cc(S(=O)(=O)O)cc(S(=O)(=O)O)c23)cc1NC(=O)c1cccc(NC(=O)Nc2cccc(C(=O)Nc3cc(C(=O)Nc4ccc(S(=O)(=O)O)c5cc(S(=O)(=O)O)cc(S(=O)(=O)O)c45)ccc3C)c2)c1"
  measured.quantity: "concentration at 120 min"
  value.measured: "~3000 ng/g"
